system: SNB-19; assay: MTT cytotoxicity assay, human glioblastoma SNB-19; type: cell-based; conditions: ratio IC50 L929 / IC50 SNB-19
Readings of SI SNB-19 (selectivity index) for the listed compounds
Lab note: jot down the number only; don't add units.

Some compounds with known SI SNB-19 (selectivity index) results, for comparison:
In: # get_value(readout= SI SNB-19 (selectivity index), system= SNB-19) for CC1(C)CCc2c(c3ccccc3c3nc(-c4ccccc4)[nH]c23)O1 [IM2]
Out: 3.89

In: Please provide the recorded SI SNB-19 (selectivity index) for CC1(C)CCc2c(c3ccccc3c3nc(-c4ccc([N+](=O)[O-])cc4)[nH]c23)O1 [IM6] , tested on SNB-19.
Out: 6.81

In: Give SI SNB-19 (selectivity index) (SNB-19) of the following compound: CN(C)c1ccc(-c2nc3c([nH]2)c2c(c4ccccc43)OC(C)(C)CC2)cc1 [IM5]
Out: 2.51

In: Entry COc1cccc2c1C(=O)c1c(O)c3c(c(O)c1C2=O)C[C@@](O)(C(=O)CO)C[C@@H]3O[C@H]1C[C@H](N)[C@H](O)[C@H](C)O1 [Doxorubicin, reference compound] , system SNB-19: what SI SNB-19 (selectivity index) was measured?
Out: 1.43

More entries:
In: Checklist item: SI SNB-19 (selectivity index) tested on SNB-19, entry CC1(C)CCc2c(c3ccccc3c3nc[nH]c23)O1 [IM1] , value?
Out: 4.00
